system: 422866-222-R5-J1-PDC complex spheroids viability; assay: Anticancer human tumor 422866-222-R5-J1-PDC patient-derived pancreatic adenocarcinoma cell line growth inhibition [RAS]; conditions: second compound 0.3 µM; first compound 1 µM; hits give low values
observationType: viability, T/C (%)
Quick reminder: number only, in %, skip the unit.

Given item NC1c2ccccc2OC12CCN(c1cnc3c(N4CCCc5ncccc54)n[nH]c3n1)CC2 (centres undefined) + CCn1c(-c2cc(N3CCN(C)CC3)cnc2C(C)OC)c2c3cc(ccc31)-c1csc(n1)CC(NC(=O)C1CC1C)C(=O)N1CCCC(N1)C(=O)OCC(C)(C)C2 , the value recorded as its viability, T/C is 19.2

Given item NC1c2ccccc2OC12CCN(c1cnc3c(N4CCCc5ncccc54)n[nH]c3n1)CC2 (centres undefined) + CCn1c(-c2cccnc2C(C)OC)c2c3cc(ccc31)N1CCOC(CC(NC(=O)C(C(C)C)N(C)C(=O)C3(F)CCN(C(=O)C#CC(C)(C)N(C)C)CC3)C(=O)N3CCCC(N3)C(=O)OCC(C)(C)C2)C1 , the value recorded as its viability, T/C is 11.3

***
Given item CCN1CCN(Cc2ccc(Nc3ncc(F)c(-c4cc(F)c5nc(C)n(C(C)C)c5c4)n3)nc2)CC1 + CCn1c(-c2cccnc2C(C)OC)c2c3cc(ccc31)N1CCOC(CC(NC(=O)C(C(C)C)N(C)C(=O)C3(F)CCN(C(=O)C#CC(C)(C)N(C)C)CC3)C(=O)N3CCCC(N3)C(=O)OCC(C)(C)C2)C1 , the value recorded as its viability, T/C is 34.9

Given item CC1(O)CCCC1n1c(=O)c(C(F)F)cc2cnc(NC3CCN(S(C)(=O)=O)CC3)nc21 (centres undefined) + CCn1c(-c2cc(N3CCN(C)CC3)cnc2C(C)OC)c2c3cc(ccc31)-c1csc(n1)CC(NC(=O)C1CC1C)C(=O)N1CCCC(N1)C(=O)OCC(C)(C)C2 , the value recorded as its viability, T/C is 22.4

* * *

tested on: 422866-222-R5-J1-PDC complex spheroids viability; assay: Anticancer human tumor 422866-222-R5-J1-PDC cell line growth inhibition [RAS]; settings: second compound 0.316 µM; first compound 0.0316 µM; hits give low values;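 also: spheroids exposed to compounds for 7 days; 100% = DMSO vehicle control viability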
Reported viability, T/C values follow for various molecules

As a guide, the following entries are already answered.
viability, T/C value, target or system 422866-222-R5-J1-PDC complex spheroids viability, for C=CC(=O)Nc1cc(Nc2nccc(-c3cn(C)c4ccccc34)n2)c(OC)cc1N(C)CCN(C)C + C=CC(=O)N1CCN(c2nc(OCC3CCCN3C)nc3c(F)c(-c4nc(N)cc(C)c4C(F)(F)F)c(Cl)cc23)C(C)C1 : 20%

viability, T/C value, target or system 422866-222-R5-J1-PDC complex spheroids viability, for C=CC(=O)Nc1cc(Nc2nccc(-c3cn(C)c4ccccc34)n2)c(OC)cc1N(C)CCN(C)C + C#Cc1c(F)ccc2cc(O)cc(-c3ncc4c(N5CC6CCC(C5)N6)nc(OCC56CCCN5CC(F)C6)nc4c3F)c12 : 47.7%

Continue with the molecule presented below.
viability, T/C value, target or system 422866-222-R5-J1-PDC complex spheroids viability, for CCC(CC)c1cc(NC2CCC(N)C2)n2nccc2n1 (stereo not drawn) + C#Cc1c(F)ccc2cc(O)cc(-c3ncc4c(N5CC6CCC(C5)N6)nc(OCC56CCCN5CC(F)C6)nc4c3F)c12 : 75%
